Test system: Staphylococcus aureus
procedure_text: Antibacterial activity against gram-positive methicillin-resistant Staphylococcus aureus H 5996/08 after 48 hrs by microdilution broth method
Format: functional
assay_context: H 5996/08, 48 h
Kindly state MIC for each of the entries shown.

Param item: O=C(N/N=C/c1ccc(O)cc1)c1ccc(C(F)(F)F)cc1 ; param system: Staphylococcus aureus; output MIC: 250 µM

Param item: O=C(N/N=C/c1ccc(Cl)cc1)c1ccc(C(F)(F)F)cc1 ; param system: Staphylococcus aureus; output MIC: 62.5 µM

Param item: O=C(N/N=C/c1ccccc1O)c1ccc(C(F)(F)F)cc1 ; param system: Staphylococcus aureus; output MIC: > 500 µM

Param item: NNC(=O)c1ccc(C(F)(F)F)cc1 ; param system: Staphylococcus aureus; output MIC: > 500 µM

Param item: O=C(N/N=C/c1cc(Cl)ccc1O)c1ccc(C(F)(F)F)cc1 ; param system: Staphylococcus aureus; output MIC: 1.98 µM

Param item: CC(C)=NNC(=O)c1ccc(C(F)(F)F)cc1 ; param system: Staphylococcus aureus; output MIC: > 500 µM

* * *

Test system: Enterococcus faecalis
procedure_text: Antibacterial activity against gram-positive Enterococcus faecalis J 14365/08 after 24 hrs by microdilution broth method
Assay type: functional
assay_context: J 14365/08, 24 h
measured_endpoint: MIC (µM)
Form entry: value (µM) — number only.

MIC for O=C(N/N=C/c1cc(Cl)ccc1O)c1ccc(C(F)(F)F)cc1 is 1.98

MIC for O=C(N/N=C/c1ccccc1O)c1ccc(C(F)(F)F)cc1 is 250

MIC for CC(C)=NNC(=O)c1ccc(C(F)(F)F)cc1 is 250

MIC for O=C(N/N=C/c1ccc(Cl)cc1)c1ccc(C(F)(F)F)cc1 is 62.5

* * *

Tested on: Staphylococcus aureus
procedure_text: Antibacterial activity against gram-positive methicillin-resistant Staphylococcus aureus H 5996/08 after 24 hrs by microdilution broth method
Type: functional
assay_context: H 5996/08, 24 h
measured_endpoint: MIC

Param item: O=C(N/N=C/c1ccc(O)cc1)c1ccc(C(F)(F)F)cc1 ; param system: Staphylococcus aureus; output MIC: 250 µM

Param item: NNC(=O)c1ccc(C(F)(F)F)cc1 ; param system: Staphylococcus aureus; output MIC: > 500 µM

Param item: O=C(N/N=C/c1ccc(Cl)cc1)c1ccc(C(F)(F)F)cc1 ; param system: Staphylococcus aureus; output MIC: 62.5 µM

Param item: O=C(N/N=C/c1cc(Cl)ccc1O)c1ccc(C(F)(F)F)cc1 ; param system: Staphylococcus aureus; output MIC: 1.98 µM

Param item: O=C(N/N=C/c1ccccc1O)c1ccc(C(F)(F)F)cc1 ; param system: Staphylococcus aureus; output MIC: 500 µM

Param item: CC(C)=NNC(=O)c1ccc(C(F)(F)F)cc1 ; param system: Staphylococcus aureus; output MIC: > 500 µM

* * *

System: Staphylococcus aureus
procedure_text: Antibacterial activity against gram-positive Staphylococcus aureus CCM 4516/08 after 24 hrs by microdilution broth method
Assay type: functional
assay_context: CCM 4516/08, 24 h
measured_endpoint: MIC (µM)
Form entry: value (µM) — number only.

MIC for O=C(N/N=C/c1ccc(O)cc1)c1ccc(C(F)(F)F)cc1 is 250

MIC for O=C(N/N=C/c1cc(Cl)ccc1O)c1ccc(C(F)(F)F)cc1 is 1.98

MIC for O=C(N/N=C/c1ccc(Cl)cc1)c1ccc(C(F)(F)F)cc1 is 62.5

MIC for O=C(N/N=C/c1ccccc1O)c1ccc(C(F)(F)F)cc1 is 500

* * *

System: Candida tropicalis
procedure_text: Antifungal activity against Candida tropicalis 156 after 48 hrs by microdilution broth method
Assay type: functional
assay_context: Candida tropicalis, 156, 48 h
Kindly state MIC for each of the entries shown.

MIC for NNC(=O)c1ccc(C(F)(F)F)cc1 is > 500 µM

MIC for O=C(N/N=C/c1ccc(Cl)cc1)c1ccc(C(F)(F)F)cc1 is 125 µM

MIC for O=C(N/N=C/c1cc(Cl)ccc1O)c1ccc(C(F)(F)F)cc1 is > 125 µM

MIC for CC(C)=NNC(=O)c1ccc(C(F)(F)F)cc1 is > 500 µM

MIC for O=C(N/N=C/c1ccccc1O)c1ccc(C(F)(F)F)cc1 is > 125 µM

MIC for OC(Cn1cncn1)(Cn1cncn1)c1ccc(F)cc1F [FLUCONAZOLE] is > 500 µM

MIC for O=C(N/N=C/c1ccc(O)cc1)c1ccc(C(F)(F)F)cc1 is > 125 µM

* * *

Test system: Mycobacterium kansasii
procedure_text: Antimycobacterial activity against Mycobacterium kansasii 6509/96 after 7 days by micromethod
Type: functional
assay_context: 6509/96, 168 h
measured_endpoint: MIC

Param item: O=C(N/N=C/c1ccc(O)cc1)c1ccc(C(F)(F)F)cc1 ; param system: Mycobacterium kansasii; output MIC: 250 µM

Param item: CC(C)=NNC(=O)c1ccc(C(F)(F)F)cc1 ; param system: Mycobacterium kansasii; output MIC: > 125 µM

Param item: O=C(N/N=C/c1cccc(O)c1)c1ccc(C(F)(F)F)cc1 ; param system: Mycobacterium kansasii; output MIC: 250 µM

Param item: O=C(N/N=C/c1ccccc1O)c1ccc(C(F)(F)F)cc1 ; param system: Mycobacterium kansasii; output MIC: 250 µM

Param item: O=C(N/N=C/c1ccc([N+](=O)[O-])cc1)c1ccc(C(F)(F)F)cc1 ; param system: Mycobacterium kansasii; output MIC: 250 µM

Param item: O=C(NN=C1CCCC1)c1ccc(C(F)(F)F)cc1 ; param system: Mycobacterium kansasii; output MIC: 500 µM

Param item: O=C(N/N=C/c1cc(Cl)ccc1O)c1ccc(C(F)(F)F)cc1 ; param system: Mycobacterium kansasii; output MIC: 62.5 µM

Param item: O=C(NN=C1CCCCC1)c1ccc(C(F)(F)F)cc1 ; param system: Mycobacterium kansasii; output MIC: 500 µM

Param item: NNC(=O)c1ccncc1 ; param system: Mycobacterium kansasii; output MIC: 8 µM

Param item: NNC(=O)c1ccc(C(F)(F)F)cc1 ; param system: Mycobacterium kansasii; output MIC: > 250 µM

Param item: O=C(N/N=C/c1ccc(Cl)cc1)c1ccc(C(F)(F)F)cc1 ; param system: Mycobacterium kansasii; output MIC: 16 µM

Param item: CC12CCC(C/C1=N\NC(=O)c1ccc(C(F)(F)F)cc1)C2(C)C (stereo not drawn) ; param system: Mycobacterium kansasii; output MIC: > 250 µM

Param item: O=C(N/N=C/c1cccc(Cl)c1)c1ccc(C(F)(F)F)cc1 ; param system: Mycobacterium kansasii; output MIC: > 125 µM

* * *

Tested on: Escherichia coli
procedure_text: Antibacterial activity against gram-negative Escherichia coli CCM 4517 after 48 hrs by microdilution broth method
Format: functional
assay_context: CCM 4517, 48 h
measured_endpoint: MIC

MIC for O=C(N/N=C/c1cc(Cl)ccc1O)c1ccc(C(F)(F)F)cc1 is 250 µM

MIC for CC(C)=NNC(=O)c1ccc(C(F)(F)F)cc1 is > 500 µM

MIC for NNC(=O)c1ccc(C(F)(F)F)cc1 is > 500 µM

MIC for O=C(N/N=C/c1ccc(O)cc1)c1ccc(C(F)(F)F)cc1 is > 250 µM

MIC for O=C(N/N=C/c1ccc(Cl)cc1)c1ccc(C(F)(F)F)cc1 is > 125 µM

MIC for O=C(N/N=C/c1ccccc1O)c1ccc(C(F)(F)F)cc1 is 500 µM

* * *

procedure_text: Selectivity index, ratio of IC50 for human HepG2 cells to MIC for gram-positive Staphylococcus aureus CCM 4516/08
Assay type: toxicity
assay_context: read-out: Selectivity Index
measured_endpoint: selectivity ratio

selectivity ratio for O=C(N/N=C/c1cc(Cl)ccc1O)c1ccc(C(F)(F)F)cc1 is > 50.5

selectivity ratio for O=C(N/N=C/c1ccc(Cl)cc1)c1ccc(C(F)(F)F)cc1 is > 1.6

* * *

Kindly state selectivity ratio for each of the entries shown.
procedure_text: Selectivity index, ratio of IC50 for human HepG2 cells to MIC for Mycobacterium tuberculosis H37Rv 331/88
Assay type: toxicity
assay_context: read-out: Selectivity Index

selectivity ratio for CC12CCC(C/C1=N\NC(=O)c1ccc(C(F)(F)F)cc1)C2(C)C (stereo not drawn) is > 25

selectivity ratio for O=C(N/N=C/c1cc(Cl)ccc1O)c1ccc(C(F)(F)F)cc1 is > 1.6

selectivity ratio for O=C(N/N=C/c1ccc(Cl)cc1)c1ccc(C(F)(F)F)cc1 is > 6.25

* * *

Kindly state selectivity ratio for each of the entries shown.
procedure_text: Selectivity index, ratio of IC50 for human HepG2 cells to MIC for Trichophyton mentagrophytes 445
Format: toxicity
assay_context: read-out: Selectivity Index

selectivity ratio for O=C(N/N=C/c1cc(Cl)ccc1O)c1ccc(C(F)(F)F)cc1 is > 25.6

selectivity ratio for O=C(N/N=C/c1ccccc1O)c1ccc(C(F)(F)F)cc1 is > 6.4

* * *

Test system: Mycobacterium kansasii
procedure_text: Antimycobacterial activity against Mycobacterium kansasii 6509/96 after 14 days by micromethod
Type: functional
assay_context: 6509/96, 336 h
Kindly state MIC for each of the entries shown.
Form entry: value (µM) — number only.

MIC for O=C(N/N=C/c1ccccc1O)c1ccc(C(F)(F)F)cc1 is 250

MIC for O=C(N/N=C/c1cccc(O)c1)c1ccc(C(F)(F)F)cc1 is 500

MIC for O=C(N/N=C/c1ccc(O)cc1)c1ccc(C(F)(F)F)cc1 is 500

MIC for O=C(N/N=C/c1cc(Cl)ccc1O)c1ccc(C(F)(F)F)cc1 is 125

MIC for O=C(N/N=C/c1ccc(Cl)cc1)c1ccc(C(F)(F)F)cc1 is 16

MIC for O=C(NN=C1CCCCC1)c1ccc(C(F)(F)F)cc1 is 1000

MIC for NNC(=O)c1ccncc1 [ISONIAZID] is 8

MIC for O=C(NN=C1CCCC1)c1ccc(C(F)(F)F)cc1 is 1000
